- System: Human immunodeficiency virus 1
- method notes: Antiviral activity against HIV1 RES056 harboring reverse transcriptase K103N/Y181C mutant infected in human MT4 cells assessed as inhibition of virus-induced cytopathicity by MTT assay
- Assay type: functional, organism-based
- conditions: Human immunodeficiency virus 1, RES056, MT4
pEC50: −log10 of the molar value.
Please respond with reported pEC50 for every item in the list.

Enquiry: Consider the molecule shown here: `O=C(CSc1nncnc1-c1ccccc1Cl)Nc1ccccc1` What is its recorded pEC50?
Return: < 3.90

Enquiry: Given the molecule `Cc1ccc(NC(=O)CSc2nncnc2-c2ccccc2Cl)c(Br)c1` , what is its reported pEC50?
Return: ≤ 4.38

Enquiry: Quick check: pEC50 of `O=C(CSc1nncnc1-c1cccc2ccccc12)Nc1ccccc1[N+](=O)[O-]` ?
Return: 5.25

Enquiry: Entry `CC(=O)c1ccc(NC(=O)CSc2nncnc2-c2cccc3ccccc23)c(Br)c1` : reported pEC50 = ?
Return: 5.37

Enquiry: # input molecule: `O=C(CSc1nncnc1-c1cccc2ccccc12)N1CCc2ccccc2C1` ; wanted: its pEC50
Return: < 4.89

Enquiry: Consider the molecule shown here: `O=C(CSc1nncnc1-c1ccccc1Cl)Nc1ccccc1[N+](=O)[O-]` What is its recorded pEC50?
Return: ≤ 4.96

Enquiry: Give its pEC50 value. Item: `CC(=O)c1ccc(NC(=O)CSc2nncnc2-c2ccccc2Cl)c(Br)c1`
Return: < 4.47

Enquiry: Query (molecule): `O=C(CSc1nncnc1-c1ccccc1Cl)Nc1ccc(Cl)cc1Cl` ; field requested: pEC50
Return: < 4.29

Enquiry: What value of pEC50 has been reported for the following molecule? `CCOC(=O)c1ccc(NC(=O)CSc2nncnc2-c2cccc3ccccc23)c(Cl)c1`
Return: < 3.82

Enquiry: // lookup pEC50 for `O=C(CSc1nncnc1-c1ccccc1Cl)Nc1cccnc1Cl`
Return: 4.64

Enquiry: Entry under review: `Cc1ccccc1NC(=O)CSc1nncnc1-c1ccccc1Cl` . Reported pEC50?
Return: < 3.85

Enquiry: Can you look up the measured pEC50 of `O=C(CSc1nncnc1-c1cccc2ccccc12)Nc1ccccc1F` for me?
Return: < 4.19

Enquiry: Please look up its pEC50: Cc1ccnc2c1NC(=O)c1cccnc1N2C1CC1 [NEVIRAPINE]
Return: 4.96

Enquiry: GET /values?readout=pEC50&item= Cc1cn([C@H]2C[C@H](N=[N+]=[N-])[C@@H](CO)O2)c(=O)[nH]c1=O [ZIDOVUDINE]
Return: 8.05

Enquiry: What does the record list as pEC50 for `COC(=O)c1sccc1NC(=O)CSc1nncnc1-c1ccccc1Cl` ?
Return: < 3.98

Enquiry: Record request: pEC50 value, item `O=C(CSc1nncnc1-c1ccccc1Cl)Nc1ccccc1Cl`
Return: ≤ 4.26

Enquiry: Name the reported pEC50 value associated with the molecule `O=C(CSc1nncnc1-c1ccccc1Cl)c1ccc(Cl)c(Cl)c1`
Return: < 4.48

Enquiry: // query pEC50 value for entry `CCOC(=O)c1ccc(NC(=O)CSc2nncnc2-c2cccc3ccccc23)c(Br)c1`
Return: < 3.98

Enquiry: What value of measured pEC50 is listed for `O=C(CSc1nncnc1-c1ccccc1Cl)N1CCc2ccccc2C1` ?
Return: ≤ 4.37

Enquiry: Name the reported pEC50 value associated with the molecule `O=C(CSc1nncnc1-c1ccccc1Cl)Nc1ccccn1`
Return: < 3.91

Enquiry: // lookup pEC50 for `Cc1ccc(NC(=O)CSc2nncnc2-c2cccc3ccccc23)c([N+](=O)[O-])c1`
Return: 5.28

Enquiry: # input molecule: `Cc1ccccc1NC(=O)CSc1nncnc1-c1cccc2ccccc12` ; wanted: its pEC50
Return: < 3.80
